Experiment: Lethal dose (toxicity) was determined by intraperitoneal administration in mice
Format: organism-based
Conditions: mouse, in vivo, ip
I'd appreciate it if you could supply LD50 values for the items below.
Answers are plain numbers, in mg/kg.

Known LD50 results, listed for orientation:
CN1CCC[C@@H]2[C@@H](c3ccccc3)c3ccccc3[C@@H]21 (racemic) has a reported LD50 of 46.7

Nc1ccc([C@H]2c3ccccc3[C@@H]3NCCC[C@H]23)cc1 has a reported LD50 of 78

Continue with the molecule presented below.
CCCN1CCC[C@@H]2[C@@H](c3ccccc3)c3ccccc3[C@@H]21 has a reported LD50 of 39

====

Species: Rattus norvegicus
Assay: In vitro inhibition of [3H]dopamine uptake into rat corpus striatum
Format: functional, organism-based
I'd appreciate it if you could supply pIC50 values for the items below.
Numbers only, as −log10 of the molar value.

Known pIC50 results, listed for orientation:
Nc1ccc([C@H]2c3ccccc3[C@@H]3NCCC[C@H]23)cc1 (racemic) has a reported pIC50 of 7.36

CN1CCC[C@@H]2[C@@H](c3ccccc3)c3ccccc3[C@@H]21 (racemic) has a reported pIC50 of 7.00

CCCN1CCC[C@@H]2[C@@H](c3ccccc3)c3ccccc3[C@@H]21 (racemic) has a reported pIC50 of 6.96

Continue with the compound presented below.
CN1CCC[C@@H]2[C@@H](c3ccccc3)c3ccccc3[C@@H]21 has a reported pIC50 of 6.52

====

Experiment: Lethal dose (toxicity) was determined by intraperitoneal administration in mice.
Format: organism-based
Conditions: mouse, in vivo, ip
measurement_type: LD50 (mg/kg)
Numbers only, in mg/kg.

Nc1ccc([C@H]2c3ccccc3[C@@H]3NCCC[C@H]23)cc1 has a reported LD50 of 43

====

I'd appreciate it if you could supply pIC50 values for the items below.
Species on record: Rattus norvegicus
Experiment: In vitro inhibition of [3H]5-HT uptake into rat whole brain
Type: functional, organism-based
pIC50: −log10 of the molar value.

CCCN1CCC[C@@H]2[C@@H](c3ccccc3)c3ccccc3[C@@H]21 (racemic) has a reported pIC50 of < 5.00

Required: pIC50, one value per compound below.
1. CN1CCC[C@@H]2[C@@H](c3ccccc3)c3ccccc3[C@@H]21 (racemic)
2. CCCN1CCC[C@@H]2[C@@H](c3ccccc3)c3ccccc3[C@@H]21

a:
1. 5.00
2. < 5.00

====

Test system: Mus musculus
Assay: Lethal dose (toxicity) was determined by intraperitoneal administration in mice.
Type: organism-based
Details: in vivo, ip
I'd appreciate it if you could supply LD50 values for the items below.
Give bare numbers, in mg/kg.

Known LD50 results, listed for orientation:
CN1Cc2c(N)cccc2C(c2ccccc2)C1 (stereo in doubt; (+)) [NOMIFENSINE] has a reported LD50 of 49.5

CN1Cc2c(N)cccc2C(c2ccccc2)C1 (stereo in doubt; (-)) [NOMIFENSINE] has a reported LD50 of 170

CN1Cc2c(N)cccc2C(c2ccccc2)C1 (racemic) [NOMIFENSINE] has a reported LD50 of 141

New cases:
Nc1ccc([C@H]2c3ccccc3[C@@H]3NCCC[C@H]23)cc1 (racemic) has a reported LD50 of 37
